The measured values listed here are drawn from ChEMBL document CHEMBL1146093.

protocol: Inhibition of rat liver CK2
measurement_label: Ki (nM)
Write the number in nM without appending the unit.

Ask: What value of Ki has been reported for the following compound? "O=c1oc2c(O)c(O)cc3c(=O)oc4c(O)c(O)cc1c4c23"
Reply: 20

---

measured_target: Dual specificity tyrosine-phosphorylation-regulated kinase 1A (Homo sapiens)
protocol: Inhibition of human recombinant DYRK1a
pIC50: −log10 of the molar value.
measurement_label: pIC50

Ask: What value of measured pIC50 is listed for O=c1oc2c(O)c(O)cc3c(=O)oc4c(O)c(O)cc1c4c23 [ELLAGIC ACID] ?
Reply: < 4.40

---

protocol: Inhibition of rat liver CK2
measurement_label: IC50
Provide the measurement as a number trailed by its unit.

Ask: Can you look up the measured IC50 of "O=c1oc2c(O)c(O)cc3c(=O)oc4c(O)c(O)cc1c4c23" for me?
Reply: 40 nM
